Biological target: P. capsici α, β-tubulin
Assay: Fluorometric binding affinity of FITC-labeled synthetic peptides
Set-up: species or system Phytophthora capsici
Conditions: FITC-labeled peptide, immobilised tubulin in 96-well plate, 2 h, ex 495 / em 520 nm
Peptide text beside a SMILES is read from it. * marks the point of attachment. FITC = O=C1OC2(c3ccc(O)cc3Oc3cc(O)ccc32)c2ccc(NC(=S)*)cc21
Measured Kd accompanies every entry in the list below.

- compound: "CC(=O)N[C@H](C(=O)N[C@@H](CC(N)=O)C(=O)N[C@H](C(=O)N[C@@H](CO)C(=O)N[C@@H](Cc1c[nH]c2ccccc12)C(=O)N[C@@H](CC(=O)O)C(=O)N1CCC[C@H]1C(=O)N[C@@H](CCC(N)=O)C(=O)N[C@@H](Cc1ccc(O)cc1)C(=O)N[C@@H](CC(N)=O)C(=O)N1CCC[C@H]1C(=O)N[C@@H](CC(=O)O)C(=O)N[C@@H](CCCCNC(=S)Nc1ccc2c(c1)C(=O)OC21c2ccc(O)cc2Oc2cc(O)ccc21)C(N)=O)[C@@H](C)O)[C@@H](C)O [α_P2] (Ac-TNTSWDPQYNPDK(FITC)-NH2)"
  Kd: "0.0939 µM"
- compound: "CC(=O)N[C@H](C(=O)N[C@@H](CC(N)=O)C(=O)N1CCC[C@H]1C(=O)N[C@@H](CCC(N)=O)C(=O)N[C@@H](C)C(=O)N[C@@H](CCCNC(=N)N)C(=O)N[C@@H](Cc1c[nH]c2ccccc12)C(=O)N[C@@H](Cc1c[nH]cn1)C(=O)N[C@@H](CCC(=O)O)C(=O)N[C@@H](Cc1ccc(O)cc1)C(=O)N[C@@H](CC(N)=O)C(=O)N[C@@H](Cc1ccccc1)C(=O)N[C@@H](CCCCNC(=S)Nc1ccc2c(c1)C(=O)OC21c2ccc(O)cc2Oc2cc(O)ccc21)C(N)=O)[C@@H](C)O [β_P1] (Ac-TNPQARWHEYNFK(FITC)-NH2)"
  Kd: "0.0497 µM"
- compound: "CC(=O)N[C@@H](CC(N)=O)C(=O)N[C@@H](Cc1c[nH]cn1)C(=O)N[C@@H](Cc1ccccc1)C(=O)N[C@H](C(=O)N1CCC[C@H]1C(=O)N[C@H](C(=O)N[C@@H](CO)C(=O)N[C@@H](CC(N)=O)C(=O)N[C@@H](CCCNC(=N)N)C(=O)N[C@@H](Cc1ccccc1)C(=O)N[C@@H](CC(N)=O)C(=O)N[C@@H](C)C(=O)N[C@@H](CCCCNC(=S)Nc1ccc2c(c1)C(=O)OC21c2ccc(O)cc2Oc2cc(O)ccc21)C(N)=O)[C@@H](C)O)C(C)C [α_P3] (Ac-NHFVPTSNRFNAK(FITC)-NH2)"
  Kd: "0.0792 µM"
